Kindly supply the reported pKi values for the records listed here.
study_system: T1, RTEL1∆762 (human, UniProt Q9NZ71-6 762-1300)
T1 sequence: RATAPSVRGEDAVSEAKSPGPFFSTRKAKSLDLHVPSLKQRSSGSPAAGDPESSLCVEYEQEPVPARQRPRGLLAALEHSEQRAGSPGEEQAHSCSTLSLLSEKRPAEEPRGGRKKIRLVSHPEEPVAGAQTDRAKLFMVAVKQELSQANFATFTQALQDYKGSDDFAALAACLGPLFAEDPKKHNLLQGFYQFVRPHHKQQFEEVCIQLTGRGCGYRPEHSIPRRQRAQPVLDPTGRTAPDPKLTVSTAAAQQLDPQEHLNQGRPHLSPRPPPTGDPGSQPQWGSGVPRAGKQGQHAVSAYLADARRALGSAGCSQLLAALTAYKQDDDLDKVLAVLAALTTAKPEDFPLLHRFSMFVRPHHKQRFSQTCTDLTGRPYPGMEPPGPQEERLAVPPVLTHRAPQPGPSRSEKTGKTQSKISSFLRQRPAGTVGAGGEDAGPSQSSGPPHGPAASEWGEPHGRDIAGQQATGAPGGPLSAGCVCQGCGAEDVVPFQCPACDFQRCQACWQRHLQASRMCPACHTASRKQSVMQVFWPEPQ
measurement_protocol: competition (fluorescence anisotropy); vs FAM-TERRA-MUT, 200 nM; 20 mM Tris pH 7.5, 50 mM KCl, 0.5 mM TCEP, 0.5 mM MgCl2, 10% glycerol, 0.1% IGEPAL, room temperature 30 min; oligos refolded in 10 mM Tris pH 7.5, 100 mM KCl; EMSA legends give 150 or 300 mM KCl
test_conditions: protein: recombinant; tags: 6xHis; chain copies: 2; G4
Just so you know, pKi here is -log10 of the concentration in molar units; reply with that number alone.

Asked: What measured pKi goes with GGTTAGGGTTAGGGTTAGGGTTAGGGTTAG (structured_DNA) [hTelo] ?
Given back: 7.54

Asked: Requested read-out: pKi. Entry: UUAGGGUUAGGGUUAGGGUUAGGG (structured_RNA) [TERRA competitor]
Given back: 7.77
